Measured values drawn from patent US20090148907A1 for this set.

- target: fructofuranosidase of S. occidentalis (enzymatic concentrate F-1) (Schwanniomyces occidentalis, UniProt P24133)
- Construct: the enzyme object of the invention is extracellularly released; endogenous in cells; host or cells: Schwanniomyces occidentalis (ATCC26077 named) grown in lactose medium; the cell-free supernatant was concentrated by 30 kDa tangential filtration and dialysed
- Sequence (P24133 other isoform, or with tags, fused parts or gaps with the stated changes): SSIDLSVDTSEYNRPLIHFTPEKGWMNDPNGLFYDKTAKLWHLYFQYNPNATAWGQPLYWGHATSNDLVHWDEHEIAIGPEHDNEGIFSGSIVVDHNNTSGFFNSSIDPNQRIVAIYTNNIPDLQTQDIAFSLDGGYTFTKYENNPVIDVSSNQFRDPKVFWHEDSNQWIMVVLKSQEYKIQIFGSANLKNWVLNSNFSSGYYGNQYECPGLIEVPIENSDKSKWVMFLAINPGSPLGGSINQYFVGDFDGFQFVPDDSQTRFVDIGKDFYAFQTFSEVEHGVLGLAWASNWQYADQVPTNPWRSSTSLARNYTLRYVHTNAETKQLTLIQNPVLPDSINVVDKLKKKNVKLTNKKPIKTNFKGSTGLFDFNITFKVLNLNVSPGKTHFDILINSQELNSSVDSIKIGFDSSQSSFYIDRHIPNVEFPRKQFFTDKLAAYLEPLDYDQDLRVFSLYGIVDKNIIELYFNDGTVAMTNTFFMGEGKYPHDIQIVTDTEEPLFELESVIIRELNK
- assay_protocol: Transfructosidase (transglycosylation) activity of enzymatic concentrate F-1 on sucrose, HPLC
- Type: biochemical
- study_conditions: reaction time 6 h; F1 5 U/ml, 50° C., pH 5.6
Below, each entry is listed with its recorded Composition of the reaction mixture.
Please give a number only; it is taken to be in grams/liter.

Known Composition of the reaction mixture results, listed for orientation:
{"smiles": "O=C(CO)[C@@H](O)[C@H](O)[C@H](O)CO", "Composition of the reaction mixture / grams/liter": 54.8}
{"smiles": "OC[C@H]1O[C@@](CO)(OC[C@@]2(O[C@H]3O[C@H](CO)[C@@H](O)[C@H](O)[C@H]3O)O[C@H](CO)[C@@H](O)[C@@H]2O)[C@@H](O)[C@@H]1O", "Composition of the reaction mixture / grams/liter": 9.6}
{"smiles": "OC[C@H]1O[C@@](CO)(O[C@H]2O[C@H](CO)[C@@H](O)[C@H](O)[C@H]2O)[C@@H](O)[C@@H]1O", "Composition of the reaction mixture / grams/liter": 343.7}

// query Please report the recorded Composition of the reaction mixture for OC[C@H]1O[C@@](CO)(OC[C@H]2O[C@@](CO)(O[C@H]3O[C@H](CO)[C@@H](O)[C@H](O)[C@H]3O)[C@@H](O)[C@@H]2O)[C@@H](O)[C@@H]1O .
// result 31.0

---

Here, each record is paired with measured Composition of the reaction mixture data.
- target: fructofuranosidase of S. occidentalis (enzymatic concentrate F-1) (Schwanniomyces occidentalis)
- Construct: the enzyme object of the invention is extracellularly released; endogenous in cells; host or cells: Schwanniomyces occidentalis (ATCC26077 named) grown in lactose medium; the cell-free supernatant was concentrated by 30 kDa tangential filtration and dialysed
- assay_protocol: Transfructosidase (transglycosylation) activity of enzymatic concentrate F-1 on sucrose, HPLC
- Format: biochemical
- study_conditions: reaction time 1.5 h; F1 5 U/ml, 50° C., pH 5.6
Supply the numeric figure in grams/liter, leaving out any unit text.

Worked set:
{"smiles": "OC[C@H]1O[C@@](CO)(OC[C@@]2(O[C@H]3O[C@H](CO)[C@@H](O)[C@H](O)[C@H]3O)O[C@H](CO)[C@@H](O)[C@@H]2O)[C@@H](O)[C@@H]1O", "measured_endpoint": "Composition of the reaction mixture", "value_reported": 6.4}
{"smiles": "OC[C@H]1O[C@@](CO)(O[C@H]2O[C@H](CO)[C@@H](O)[C@H](O)[C@H]2O)[C@@H](O)[C@@H]1O", "measured_endpoint": "Composition of the reaction mixture", "value_reported": 453.8}

// query State the recorded Composition of the reaction mixture for this entry: OC[C@H]1O[C@@](CO)(OC[C@H]2O[C@@](CO)(O[C@H]3O[C@H](CO)[C@@H](O)[C@H](O)[C@H]3O)[C@@H](O)[C@@H]2O)[C@@H](O)[C@@H]1O
// result 12.7

// query Report Composition of the reaction mixture for O=C(CO)[C@@H](O)[C@H](O)[C@H](O)CO please.
// result 16.8

---

- target: fructofuranosidase of S. occidentalis (enzymatic concentrate F-1) (Schwanniomyces occidentalis, UniProt P24133)
- Construct: the enzyme object of the invention is extracellularly released; endogenous in cells; host or cells: Schwanniomyces occidentalis (ATCC26077 named) grown in lactose medium; the cell-free supernatant was concentrated by 30 kDa tangential filtration and dialysed
- assay_protocol: Transfructosidase (transglycosylation) activity of enzymatic concentrate F-1 on sucrose, HPLC
- Type: biochemical
- study_conditions: reaction time 24 h; F1 5 U/ml, 50° C., pH 5.6
measured_endpoint: Composition of the reaction mixture (grams/liter)
Lab book: enter the figure in grams/liter, no units written.

{"compound": "OC[C@H]1O[C@@](CO)(O[C@H]2O[C@H](CO)[C@@H](O)[C@H](O)[C@H]2O)[C@@H](O)[C@@H]1O [sucrose, α-D-Glu-(1→2)-β-D-Fru]", "measured_endpoint": "Composition of the reaction mixture", "value_reported": 240.9}

// query So what's the measured Composition of the reaction mixture for this one? OC[C@H]1O[C@@](CO)(OC[C@H]2O[C@@](CO)(O[C@H]3O[C@H](CO)[C@@H](O)[C@H](O)[C@H]3O)[C@@H](O)[C@@H]2O)[C@@H](O)[C@@H]1O [6-kestose, β-D-Fru-(2→6)-β-D-Fru-(2→1)-α-D-Glu]
// result 10.6

// query Fill in: Composition of the reaction mixture of OC[C@H]1O[C@@](CO)(OC[C@@]2(O[C@H]3O[C@H](CO)[C@@H](O)[C@H](O)[C@H]3O)O[C@H](CO)[C@@H](O)[C@@H]2O)[C@@H](O)[C@@H]1O [1-kestose, β-D-Fru-(2→1)-β-D-Fru-(2→1)-α-D-Glu] is ___
// result 4.5

// query # lookup: Composition of the reaction mixture of O=C(CO)[C@@H](O)[C@H](O)[C@H](O)CO [fructose]
// result 113.6

---

Reported Composition of the system values follow for various compounds
- target: fructofuranosidase of S. occidentalis (pure enzyme F-3) (Schwanniomyces occidentalis)
- Construct: the enzyme object of the invention is extracellularly released; endogenous in cells; host or cells: Schwanniomyces occidentalis culture supernatant; concentrated (F-1), then DEAE-Sephacel at pH 7 (F-2) and at pH 5 (F-3)
- Sequence (P24133 other isoform, or with tags, fused parts or gaps with the stated changes): as above
- assay_protocol: Transfructosidase (transglycosylation) activity of pure enzyme F-3 on sucrose, HPLC
- Assay type: biochemical
- study_conditions: final reaction time (144 h); F-3 0.5 U/ml, 50° C.
A number alone suffices; assume %.

Solved entries (count: 3):
{"smiles": "OC[C@H]1O[C@@](CO)(O[C@H]2O[C@H](CO)[C@@H](O)[C@H](O)[C@H]2O)[C@@H](O)[C@@H]1O", "value_reported": 64.1}
{"smiles": "O=C(CO)[C@@H](O)[C@H](O)[C@H](O)CO", "value_reported": 12.7}
{"smiles": "OC[C@H]1O[C@@](CO)(OC[C@@]2(O[C@H]3O[C@H](CO)[C@@H](O)[C@H](O)[C@H]3O)O[C@H](CO)[C@@H](O)[C@@H]2O)[C@@H](O)[C@@H]1O", "value_reported": 2.4}

Next compound, please.
// query Sample OC[C@H]1O[C@@](CO)(OC[C@H]2O[C@@](CO)(O[C@H]3O[C@H](CO)[C@@H](O)[C@H](O)[C@H]3O)[C@@H](O)[C@@H]2O)[C@@H](O)[C@@H]1O — what was its Composition of the system?
// result 5.9

---

- target: fructofuranosidase of S. occidentalis (enzymatic concentrate F-1) (Schwanniomyces occidentalis)
- Construct: the enzyme object of the invention is extracellularly released; endogenous in cells; host or cells: Schwanniomyces occidentalis (ATCC26077 named) grown in lactose medium; the cell-free supernatant was concentrated by 30 kDa tangential filtration and dialysed
- assay_protocol: Transfructosidase (transglycosylation) activity of enzymatic concentrate F-1 on sucrose, HPLC
- Type: biochemical
- study_conditions: reaction time 4 h; F1 5 U/ml, 50° C., pH 5.6
measured_endpoint: Composition of the reaction mixture (grams/liter)
Dear colleague, please return just the value in grams/liter, with no unit written.

{"smiles": "OC[C@H]1O[C@@](CO)(O[C@H]2O[C@H](CO)[C@@H](O)[C@H](O)[C@H]2O)[C@@H](O)[C@@H]1O", "measured_endpoint": "Composition of the reaction mixture", "readout_units": "grams/liter", "value_reported": 361.6}
{"smiles": "O=C(CO)[C@@H](O)[C@H](O)[C@H](O)CO", "measured_endpoint": "Composition of the reaction mixture", "readout_units": "grams/liter", "value_reported": 44.3}
{"smiles": "OC[C@H]1O[C@@](CO)(OC[C@@]2(O[C@H]3O[C@H](CO)[C@@H](O)[C@H](O)[C@H]3O)O[C@H](CO)[C@@H](O)[C@@H]2O)[C@@H](O)[C@@H]1O", "measured_endpoint": "Composition of the reaction mixture", "readout_units": "grams/liter", "value_reported": 10.1}

Attention now turns to another entry.
// query What value of Composition of the reaction mixture has been reported for the following compound? OC[C@H]1O[C@@](CO)(OC[C@H]2O[C@@](CO)(O[C@H]3O[C@H](CO)[C@@H](O)[C@H](O)[C@H]3O)[C@@H](O)[C@@H]2O)[C@@H](O)[C@@H]1O
// result 33.5

---

- target: Fructofuranosidase activity of the F-3 fraction of S. occidentalis (Schwanniomyces occidentalis, UniProt P24133)
- Construct: the enzyme object of the invention is extracellularly released; endogenous in cells; host or cells: Schwanniomyces occidentalis culture supernatant; concentrated (F-1), then DEAE-Sephacel at pH 7 (F-2) and at pH 5 (F-3)
- Sequence (P24133 other isoform, or with tags, fused parts or gaps with the stated changes): as above
- assay_protocol: Fructofuranosidase (hydrolytic) activity of the purified enzyme F-3 on different substrates
- Format: biochemical
- study_conditions: purified enzyme F-3
measured_endpoint: Hydrolytic activity on substrate (in words)

{"compound": "OC[C@H]1O[C@H](OC[C@H]2OC(O)(CO)[C@@H](O)[C@@H]2O)[C@H](O)[C@@H](O)[C@@H]1O (stereo partly shown)", "value_reported": "not observed"}
{"compound": "OC[C@H]1O[C@H](O[C@@H]2COC(O)(CO)[C@@H](O)[C@@H]2O)[C@H](O)[C@@H](O)[C@@H]1O (stereo partly shown)", "value_reported": "not observed"}
{"compound": "O=C(CO)[C@@H](O[C@H]1O[C@H](CO)[C@@H](O)[C@H](O)[C@H]1O)[C@H](O)[C@H](O)CO", "value_reported": "not observed"}
{"compound": "OC[C@H]1O[C@@H](O[C@H]2[C@H](O)[C@@H](O)C(O)O[C@@H]2CO)[C@H](O)[C@@H](O)[C@H]1O (stereo partly shown)", "value_reported": "not observed"}
